Tested on: ME-180
assayNotes: Antiproliferative activity against human ME-180 ells assessed as inhibition of cell growth
Format: functional, cell-based
measuredProperty: IC50 (nM)
Write it as a number; the unit nM goes unstated.

Problem: Record lookup: for ME-180, what IC50 belongs to `C/C(=C/C=C/C(C)=C/C(=O)O)c1cc(C(C)(C)C)cc(C(C)(C)C)c1` ?
Result: 20

* * *

Tested on: A2780
assayNotes: Antiproliferative activity against human A2780 cells assessed as inhibition of cell growth measured after 72 hrs by SRB assay
Type: functional, cell-based
experimentalSetup: A2780, 72 h
measuredProperty: pIC50
Remember, pIC50 is on a log scale: it is -log10 of the molar concentration.

Problem: // lookup pIC50 for `CC1=C(/C=C/C(C)=C/C=C/C(C)=C/C(=O)Nc2ccc(O)cc2)C(C)(C)CC/C1=N\OCC(=O)O`
Result: 6.01

Attribution: ChEMBL document CHEMBL5241070
